- System: BT-549 breast
- PROCEDURE SUMMARY: NCI tumour cell line growth inhibition, 48 h
RESULT TYPE: TGI

>>> result("CCCCNc1nc2ccccc2c2c1ncn2CC(C)C")
"> 100 µM"
>>> result("CC(=O)Nc1ccc(NS(=O)(=O)c2ccc3nc(C)n(NS(=O)(=O)c4ccc(NC(C)=O)cc4)c(=O)c3c2)cc1")
"> 100 µM"
>>> result("CC(C)(C)c1cc(-c2cc(C(C)(C)C)[nH]n2)n[nH]1")
"> 100 µM"
>>> result("COc1ccc(/C=C(/C(=O)N2CCN(c3ccccc3)CC2)c2cc(OC)c(OC)c(OC)c2)cc1N")
"> 100 µM"

Now consider a different molecule.
Ask: TGI for `Nc1ccc2nc3c(nc2c1)C(=O)c1ccccc1-3` ?
Reply: > 100 µM
